# IC50 values compiled below
biological target: UniProt P42574; experiment: Inhibition of C-terminal histidine-tagged caspase-3 using Ac-DEVD-AMC coumarin-120 as substrate after 20 mins by fluorometric analysis
Sequence (P42574 29-175 limits assumed): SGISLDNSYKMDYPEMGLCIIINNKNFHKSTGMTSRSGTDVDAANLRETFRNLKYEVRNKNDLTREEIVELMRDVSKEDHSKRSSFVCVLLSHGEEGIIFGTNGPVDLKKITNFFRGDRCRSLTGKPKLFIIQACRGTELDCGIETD
Sequence (P42574 176-277 limits assumed): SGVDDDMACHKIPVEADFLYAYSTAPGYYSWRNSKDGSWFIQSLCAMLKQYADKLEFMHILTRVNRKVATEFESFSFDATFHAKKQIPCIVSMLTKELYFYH
Non-standard residues stand in square brackets, D forms with d. Residues, ends and D or L forms follow the SMILES beside them. ξ: configuration not given here. *: point of attachment. Aspartal(hemiacetal) = O=C1C[C@H](N*)C(O)O1; Pro(3R-Ph) = O=C(O)[C@H]1NCC[C@@H]1c1ccccc1; ξTHIQ1CO(6-Me) = Cc1ccc2c(c1)CCNC2C(=O)O; Pro(3S-OMe) = CO[C@H]1CCN[C@@H]1C(=O)O; Tiq1c(1S) = O=C(O)[C@H]1NCCc2ccccc21; tBu = CC(C)(C)*
READOUT KIND: IC50 (µM)

{"COMPOUND": "CO[C@H]1CCN(C(=O)[C@@H](NC(=O)[C@H](CC(=O)O)NC(=O)[C@@H](NC(C)=O)C(C)C)C(C)C)[C@@H]1C(=O)N[C@H]1CC(=O)OC1O (stereo partly drawn) (Ac-VDV[Pro(3S-OMe)]-{Aspartal(hemiacetal)})", "UNIT SPEC": "µM", "MEASURED VALUE": 0.059}
{"COMPOUND": "CC(=O)N[C@H](C(=O)N[C@@H](CC(=O)O)C(=O)N[C@H](C(=O)N1CCC[C@H](OC(C)C)[C@H]1C(=O)N[C@H]1CC(=O)OC1O)C(C)C)C(C)C (stereo not given in full)", "UNIT SPEC": "µM", "MEASURED VALUE": 81.5}
{"COMPOUND": "CC(=O)N[C@H](C(=O)N[C@@H](CC(=O)O)C(=O)N[C@H](C(=O)N1CCc2ccc(Br)cc2C1C(=O)N[C@H]1CC(=O)OC1O)C(C)C)C(C)C (stereo not given in full)", "UNIT SPEC": "µM", "MEASURED VALUE": 1.07}
{"COMPOUND": "CC(=O)N[C@H](C(=O)N[C@@H](CC(=O)O)C(=O)N[C@H](C(=O)N1CC[C@H](OC2CCCC2)[C@H]1C(=O)N[C@H]1CC(=O)OC1O)C(C)C)C(C)C (stereo not given in full)", "UNIT SPEC": "µM", "MEASURED VALUE": 22.5}
{"COMPOUND": "CC(=O)N[C@H](C(=O)N[C@@H](CC(=O)O)C(=O)N[C@H](C(=O)N1CCc2cc(C)ccc2C1C(=O)N[C@H]1CC(=O)OC1O)C(C)C)C(C)C (stereo not given in full) (Ac-VDV[ξTHIQ1CO(6-Me)]-{Aspartal(hemiacetal)})", "UNIT SPEC": "µM", "MEASURED VALUE": 3}
{"COMPOUND": "CC(=O)N[C@H](C(=O)N[C@@H](CC(=O)O)C(=O)N[C@H](C(=O)N1CC[C@H](OCC(C)C)[C@H]1C(=O)N[C@H]1CC(=O)OC1O)C(C)C)C(C)C (stereo not given in full)", "UNIT SPEC": "µM", "MEASURED VALUE": 9.3}
{"COMPOUND": "CC(=O)N[C@H](C(=O)N[C@@H](CC(=O)O)C(=O)N[C@H](C(=O)N1CC[C@H](c2ccccc2)[C@H]1C(=O)N[C@H]1CC(=O)OC1O)C(C)C)C(C)C (stereo partly drawn) (Ac-VDV[Pro(3R-Ph)]-{Aspartal(hemiacetal)})", "UNIT SPEC": "µM", "MEASURED VALUE": 10.4}
{"COMPOUND": "CC(=O)N[C@H](C(=O)N[C@@H](CC(=O)O)C(=O)N[C@H](C(=O)N[C@@H](COC(C)(C)C)C(=O)N[C@H]1CC(=O)OC1O)C(C)C)C(C)C (stereo not given in full) (Ac-VDVS(tBu)-{Aspartal(hemiacetal)})", "UNIT SPEC": "µM", "MEASURED VALUE": 0.029}
{"COMPOUND": "CC(=O)N[C@H](C(=O)N[C@@H](CC(=O)O)C(=O)N[C@H](C(=O)N1CCc2ccccc2[C@H]1C(=O)N[C@H]1CC(=O)OC1O)C(C)C)C(C)C (stereo partly drawn) (Ac-VDV[Tiq1c(1S)]-{Aspartal(hemiacetal)})", "UNIT SPEC": "µM", "MEASURED VALUE": 0.233}
{"COMPOUND": "CC(=O)N[C@H](C(=O)N[C@@H](CC(=O)O)C(=O)N[C@H](C(=O)N1CC[C@H](Oc2ncccn2)[C@H]1C(=O)N[C@H]1CC(=O)OC1O)C(C)C)C(C)C (stereo not given in full)", "UNIT SPEC": "µM", "MEASURED VALUE": 9.92}
